Experiment: NCI Yeast Anticancer Drug Screen. Data for the mec2-1 strain (AID 157)
Details: S. cerevisiae mec2-1 strain, at 3.7 µM, stronger effect = higher value
About 79,000 compounds went through this panel and 15% of them were active in at least one assay; those are over-represented in the sample as a whole.
Measured quantity: growth inhibition (%)
Give bare numbers, in %.

Here is how some compounds turned out for growth inhibition.
[
  {
    "Compound": "CCCCCCCCCCCC(O)S(=O)(=O)O (configuration not stated)",
    "growth inhibition, %": 0
  },
  {
    "Compound": "S=c1[nH]c2cc3ccccc3cc2[nH]1",
    "growth inhibition, %": -13
  },
  {
    "Compound": "COc1cc(C2SCC(=O)N2c2ccc(-c3ccc(-n4c(-c5ccccc5)nc5ccccc5c4=O)cc3)cc2)ccc1O (configuration not stated)",
    "growth inhibition, %": -1
  }
]

Provide reported growth inhibition for each item, in the same order as listed.
1. COc1ccc(C(=O)Oc2ccccc2Br)cc1
2. CC1OC(O[C@H]2/C=C/C=C/C=C/C=C/C=C/C=C/C=C/[C@H](C)[C@@H](O)[C@@H](C)[C@H](C)OC(=O)C[C@H](O)C[C@H](O)CC[C@@H](O)[C@H](O)C[C@H](O)C[C@]3(O)C[C@H](O)[C@@H](C(=O)O)[C@H](C2)O3)C(O)C(N)C1O (some centres not stated)
3. O=C(/C=C\c1cccc(C(F)(F)F)c1)c1ccccc1

-8
28
0

* * *

Assay: NCI Yeast Anticancer Drug Screen. Data for the rad50 strain (AID 155);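 further: 0% = growth of vehicle-only cultures of the same strain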
Conditions: S. cerevisiae rad50 strain growth inhibition; at 5.0 µM (retest, dose inferred, filed as 0.5); stronger effect = higher value
This is part of a sample that, as a whole, favours compounds with a hit. Of some 79,000 tested, about 15% had one in any assay.
I'd be grateful if you could share measured growth inhibition for these entries.
One number for each entry, in %.

[
  {
    "Compound": "O=C(O)c1cc2ccc(Cl)cc2c(O)c1C1=CCCCC1",
    "Unit of measurement": "%",
    "growth inhibition": 33
  },
  {
    "Compound": "CCOC1Oc2ccccc2-c2nc(N)ncc21 (configuration not stated)",
    "Unit of measurement": "%",
    "growth inhibition": 17
  },
  {
    "Compound": "Oc1cccc2cc(Cl)cnc12",
    "Unit of measurement": "%",
    "growth inhibition": 37
  },
  {
    "Compound": "COc1ccc(C2C3=C(COC3=O)OC(C)(C)Oc3cc4c(cc32)OCO4)cc1OC (configuration not stated)",
    "Unit of measurement": "%",
    "growth inhibition": 0
  },
  {
    "Compound": "CC(C)OC(=O)c1ccc(CCc2cc(O)c(Br)cc2O)cc1",
    "Unit of measurement": "%",
    "growth inhibition": 27
  }
]

Dear colleague, could you please provide growth inhibition for the compounds listed below?
1. CCCCOP(=O)(CCCP(=O)(OCCCC)OCCCC)OCCCC
2. N#CC(C#N)=NNc1ccc(S(=O)(=O)O)cc1
3. CN(C)CCNC(=O)c1cccc2c1Oc1c(cccc1[N+](=O)[O-])O2
4. COC(=O)NC1C(C)OC(OC2C/C=C(/C)C3C=CC4C(OC5CC(OC6CC(O)C(OC7CC(O)C(OC)C(C)O7)C(C)O6)C(O)C(C)O5)C(C)CC(C)C4C3(C)/C(O)=C3\C(=O)OC4(CC(C)C(CO)=CC4/C=C\2C)C3=O)CC1(C)[N+](=O)[O-] (configuration not stated)
5. COC(=O)C1=C(C(=O)OC)C(C(=O)OC)C(C(=O)OC)C(C(=O)OC)(C(=O)OC)C(C(=O)OC)=C1C(=O)OC (configuration not stated)
6. O=C1CSC(c2cccc(Cl)c2)N1c1ccc(-c2ccc(-n3c(-c4ccccc4)nc4ccccc4c3=O)cc2)cc1 (configuration not stated)
7. CCc1nc2ccc(NCCN(C)C)c3c(=O)c4ccccc4n1c23

[7, 85, 29, 23, 25, -2, 38]

Provide each entry's growth inhibition from the list below.
1. CCCCCCCCCCCCNC(C)=O
2. CCCCNC1CCC2(SCCS2)c2[nH]c3ccccc3c21 (configuration not stated)
3. COc1ccc(/C=C2\NC(=S)N(/C=C3\C(=O)Oc4ccccc4C3=O)C2=O)cc1
4. CN(C)CCNC(=O)c1cccc2cc([N+](=O)[O-])ccc12

1: -165; 2: 9; 3: 3; 4: 38

Which growth inhibition value is on record for CC(=O)OCC(C)Cc1cc2c(cc1Br)OCO2 (configuration not stated) ?
2

* * *

I'd appreciate it if you could supply growth inhibition values for the items below.
Experiment: NCI Yeast Anticancer Drug Screen. Data for the bub3 strain (AID 167)
Conditions: S. cerevisiae bub3 mutant strain, at 11.0 µM, stronger effect = higher value
The panel holds about 79,000 compounds, 15% with a hit somewhere; the sample as a whole holds those more often. Active and inactive are the calls of the source. Cut-off read from the data, not from the text of the source: active = growth inhibition above about 70%; inactive = the rest.

Below: 5 compounds and their reported growth inhibition.
[
  {
    "Line notation": "CCOC(=O)c1cc([N+](=O)[O-])c(Sc2ncnc3nc[nH]c23)c([N+](=O)[O-])c1",
    "growth inhibition": "43% (inactive)"
  },
  {
    "Line notation": "COc1cc(/C=C2\\CCC/C(=C\\c3ccc(O)c(OC)c3)C2=O)ccc1O",
    "growth inhibition": "-2% (inactive)"
  },
  {
    "Line notation": "CNC(=O)OCc1c(COC(=O)NC)c2n(c1C)-c1ccc(OC)cc1CCC2",
    "growth inhibition": "-30% (inactive)"
  },
  {
    "Line notation": "O=c1[nH]c(-c2ccccc2)nc2c1sc1nc3ccccc3n12",
    "growth inhibition": "-43% (inactive)"
  },
  {
    "Line notation": "Cc1nc2ccccc2nc1NNc1ccccc1",
    "growth inhibition": "28% (inactive)"
  }
]

Field: next compound
# input compound: O=C(O)CNC(=S)Nc1ccccc1 ; wanted: its growth inhibition
-15% (inactive)

* * *

Assay: NCI Yeast Anticancer Drug Screen. Data for the rad14 strain (AID 159);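 further: 0% = growth of vehicle-treated control cultures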
Conditions: S. cerevisiae rad14 strain growth inhibition; at 33.0 µM
Compounds without any hit were thinned out: in the full panel of roughly 79,000, 15% have a hit. Activity calls are given as the source filed them. Cut-off read from the data, not from the text of the source: active = growth inhibition above about 70%; inactive = the rest.
Please answer using one outcome listed in yes (1) = active, no (0) = inactive

These solved cases illustrate the format of a correct answer.
[
  {
    "Compound": "C[CH2][Sn]([CH2]C)([O]C(=O)C(N)Cc1ccccc1)[O]C(=O)C(N)Cc1ccccc1 (stereo not given)",
    "Label value": "no (0)"
  },
  {
    "Compound": "CCCCN(CCCC)C(=O)/C=C/c1ccccc1",
    "Label value": "no (0)"
  },
  {
    "Compound": "Cc1cccc(/C=N/NC(=S)N2CCCC2)n1",
    "Label value": "yes (1)"
  },
  {
    "Compound": "O=C(NCCCNCCN1C(=O)c2cccc3cc([N+](=O)[O-])cc(c23)C1=O)c1cc(-c2ccccc2)nc2ccccc12",
    "Label value": "no (0)"
  },
  {
    "Compound": "O=C(NO)Nc1cc(Cl)cc(Cl)c1",
    "Label value": "yes (1)"
  },
  {
    "Compound": "O=[N+]([O-])c1cc(S(=O)(=O)Nc2ccccc2)ccc1Nc1ccccc1",
    "Label value": "yes (1)"
  }
]

Please state the recorded outcome for this compound: CCOC(=O)c1[nH]cc(C)c1-c1cccn1-c1ccc(Cl)cc1[N+](=O)[O-]
no (0)

// query: O=[N+]([O-])c1ccc2c(c1)/C(=N/N=C1c3ccccc3Cc3ccccc31)c1cc([N+](=O)[O-])cc([N+](=O)[O-])c1-2
yes (1)

What about this compound? NC1CCCCC1N.Nc1c(N=Nc2ccc(-c3ccc(N=Nc4cc(S(=O)(=O)[O-])c5ccccc5c4N)cc3)cc2)cc(S(=O)(=O)[O-])c2ccccc12.[OH3+].[OH3+].[Pt+4]
yes (1)

Follow-up item: CC1=C(SCc2ccccc2)C(=O)c2ccccc2C1=O
yes (1)

* * *

Experiment: NCI Yeast Anticancer Drug Screen. Data for the mec2-1 strain (AID 157)
Conditions: S. cerevisiae mec2-1 strain, at 50.0 µM, stronger effect = higher value
The panel holds about 79,000 compounds, 15% with a hit somewhere; the sample as a whole holds those more often.
Short version: growth inhibition at least 50% is yes (1), less is no (0).

[
  {
    "Compound": "O=c1[nH]c(-c2ccccc2)nc2c1sc1nc3ccccc3n12",
    "Label value": "no (0)"
  },
  {
    "Compound": "O=Cc1ccc2c(c1)C(=O)c1ccccc1C2=O",
    "Label value": "no (0)"
  },
  {
    "Compound": "CC(=O)SC(C[N+](=O)[O-])c1ccccc1 (stereo unspecified)",
    "Label value": "yes (1)"
  },
  {
    "Compound": "C=C(C(=C)n1nnc(C(=O)OC)c1C(=O)OC)n1nnc(C(=O)OC)c1C(=O)OC",
    "Label value": "yes (1)"
  },
  {
    "Compound": "CNC(=O)OCc1c(COC(=O)NC)c(-c2ccc(Cl)c(Cl)c2)n2c1SCC2",
    "Label value": "no (0)"
  }
]

Check if growth inhibition >= 50% (inclusive). Item: COC(=O)Nc1cn2ccc(C(Cl)=C(Cl)Cl)cc2n1
no (0)

Please give the result for Brc1ccccc1-c1ncc(-c2ccccc2)o1 too.
no (0)

Query CCOC(=O)c1[nH]cc(C)c1-c1cccn1-c1ccc(Cl)cc1[N+](=O)[O-] next
no (0)

What about O=C1CC(=O)c2ccccc21 ?
no (0)

Record: COC(=O)Oc1cc(Cl)c(Cl)cc1Cl
no (0)
